Target: T1, rhesus ERBB3 on transiently transfected HEK-293 cells (rhesus monkey (Macaca mulatta), UniProt P21860 20-1342 (human entry))
T1 construct: also called rhesus ERBB3+ HEK-293 cells
T1 chain: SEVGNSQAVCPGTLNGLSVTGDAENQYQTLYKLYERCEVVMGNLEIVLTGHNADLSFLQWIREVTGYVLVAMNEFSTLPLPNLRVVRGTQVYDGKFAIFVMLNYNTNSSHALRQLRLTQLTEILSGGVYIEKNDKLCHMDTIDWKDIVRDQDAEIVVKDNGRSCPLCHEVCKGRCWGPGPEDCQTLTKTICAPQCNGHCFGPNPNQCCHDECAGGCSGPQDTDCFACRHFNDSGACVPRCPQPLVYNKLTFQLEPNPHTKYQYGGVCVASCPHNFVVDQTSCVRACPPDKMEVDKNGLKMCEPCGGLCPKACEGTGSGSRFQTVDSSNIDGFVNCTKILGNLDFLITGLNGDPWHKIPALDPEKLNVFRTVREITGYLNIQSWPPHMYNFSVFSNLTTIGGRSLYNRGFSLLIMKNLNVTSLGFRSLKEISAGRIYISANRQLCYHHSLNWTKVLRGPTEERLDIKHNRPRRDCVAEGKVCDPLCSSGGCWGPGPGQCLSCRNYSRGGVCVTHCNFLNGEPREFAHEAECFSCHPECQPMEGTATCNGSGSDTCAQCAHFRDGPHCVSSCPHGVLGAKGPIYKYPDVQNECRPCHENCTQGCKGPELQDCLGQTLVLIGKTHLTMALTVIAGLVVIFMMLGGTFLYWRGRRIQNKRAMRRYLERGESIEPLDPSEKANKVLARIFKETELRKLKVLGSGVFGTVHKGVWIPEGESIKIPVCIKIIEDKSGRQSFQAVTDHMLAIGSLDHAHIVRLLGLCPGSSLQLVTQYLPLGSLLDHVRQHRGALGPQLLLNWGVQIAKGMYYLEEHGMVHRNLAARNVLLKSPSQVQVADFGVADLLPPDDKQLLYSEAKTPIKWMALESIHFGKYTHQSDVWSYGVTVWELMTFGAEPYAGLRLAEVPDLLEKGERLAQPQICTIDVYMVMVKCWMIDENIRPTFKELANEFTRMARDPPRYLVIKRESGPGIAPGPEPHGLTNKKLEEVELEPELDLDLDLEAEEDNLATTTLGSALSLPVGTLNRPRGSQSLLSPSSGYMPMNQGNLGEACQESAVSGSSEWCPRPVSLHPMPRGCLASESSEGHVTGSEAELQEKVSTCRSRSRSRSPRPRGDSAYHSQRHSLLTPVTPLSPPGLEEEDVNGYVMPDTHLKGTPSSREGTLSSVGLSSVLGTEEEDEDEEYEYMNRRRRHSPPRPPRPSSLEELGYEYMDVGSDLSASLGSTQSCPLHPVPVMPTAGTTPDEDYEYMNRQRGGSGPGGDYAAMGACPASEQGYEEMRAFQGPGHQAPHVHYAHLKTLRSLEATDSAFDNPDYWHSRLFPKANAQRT
Test: flow cytometry, rhesus ERBB3-transfected HEK-293
assay.endpoint: maximum MFI, fold over isotype control background

// known answers, use as guide
binder: 16B09 IgG1null (antibody, V domains shown, Human IgG1null (L234A, L235A, G237A) and human Ckappa) VH: QVQLVESGGGLVKPGGSLRLSCAASGFTFSDYSMSWIRQAPGKGLEWVSTISDSGTYTYYPDSVKGRFTISRDNAKNSLYLQMNSLRAEDTAVYYCAREWGDYDGFDFWGQGTLVTVSS VL: DIQMTQSPSSLSASVGDRVTITCRASQEISSYLSWYQQKPGKAPKLLIYAASTLQSGVPSRFSGSGSGTDFTLTISSLQPEDFATYYCLQYDSTPLTFGGGTKVEIK
reading: > 20 fold

binder: 15E02 IgG1null (antibody, V domains shown, Human IgG1null and human Ckappa) VH: QVQLVESGGGLVKPGGSLRLSCAASGFTFSDYGMSWIRQAPGKGLEWVSTISDSGTTIYYADNVKGRFTISRDNAKNSLYLQMNSLRAEDTAVYYCAREYGDYDGFDYWGQGTLVTVSS VL: DIQMTQSPSSLSASVGDRVTITCRASQSISSYLSWYQQKPGKAPKLLIYAASSLQSGVPSRFSGSGSGTDFTLTISSLQPEDFATYYCLQYDSTPLTFGGGTKVEIK
reading: > 20 fold

Next, consider the following binder.
Item: 15D03 IgG1null (antibody, V domains shown, Human IgG1null and human Ckappa) VH: QVQLVESGGGLVKPGGSLRLSCAASGFTFSDYGMSWIRQAPGKGLEWVSTISDSGSYIYYADSVKGRFTISRDNAKNSLYLQMNSLRAEDTAVYYCAREWGDYDGFDHWGQGTLVTVSS VL: DIQMTQSPSSLSASVGDRVTITCRASQEISSYLSWYQQKPGKAPKLLIYAASSLQSGVPSRFSGSGSGTDFTLTISSLQPEDFATYYCLQYDSTPLTFGGGTKVEIK | maximum MFI, fold over isotype control background: > 20 fold
